System: BT-549 breast
experimentalDetails: NCI-60 one-dose screen, 48 h
protocolConditions: 10 µM
The panel holds about 83,000 compounds, 20% with a hit somewhere; the sample as a whole holds those more often. Calls of active or inactive are those of the source. How the source made its calls: active means growth percent below 10; inactive means the rest.
Labels: TRUE for active, FALSE for inactive

INSERT INTO measurements (substancesmiles, qualitativelabel) VALUES
  ('CC/C(=C(\c1ccc(O)cc1)c1ccc(OCCN(C)C(=O)COCCNC(=O)Cc2ccc3c(c2)CN([C@@H]2CCC(=O)NC2=O)C3=O)cc1)c1ccccc1', 'TRUE'),
  ('CC/C(=C(\c1ccc(O)cc1)c1ccc(OCCNC)cc1)c1ccccc1', 'FALSE'),
  ('CC/C(=C(/c1ccc(O)cc1)c1ccc(OCCN(C)C(=O)COCCOCCNC(=O)c2ccc3c(c2)CN([C@@H]2CCC(=O)NC2=O)C3=O)cc1)c1ccccc1', 'FALSE'),
  ('CC/C(=C(/c1ccc(O)cc1)c1ccc(OCCN(C)C(=O)CCOCCNC(=O)Cc2ccc3c(c2)CN([C@@H]2CCC(=O)NC2=O)C3=O)cc1)c1ccccc1', 'TRUE'),
  ('CC/C(=C(\c1ccc(O)cc1)c1ccc(OCCN(C)C(=O)CCOCCNC(=O)c2ccc3c(c2)CN([C@@H]2CCC(=O)NC2=O)C3=O)cc1)c1ccccc1', 'FALSE');
